# subjectOfTest: Dcs1p WT (H268N), full length (Saccharomyces cerevisiae, UniProt Q06151, H268N)
# Sequence (Q06151 whole entry H268N): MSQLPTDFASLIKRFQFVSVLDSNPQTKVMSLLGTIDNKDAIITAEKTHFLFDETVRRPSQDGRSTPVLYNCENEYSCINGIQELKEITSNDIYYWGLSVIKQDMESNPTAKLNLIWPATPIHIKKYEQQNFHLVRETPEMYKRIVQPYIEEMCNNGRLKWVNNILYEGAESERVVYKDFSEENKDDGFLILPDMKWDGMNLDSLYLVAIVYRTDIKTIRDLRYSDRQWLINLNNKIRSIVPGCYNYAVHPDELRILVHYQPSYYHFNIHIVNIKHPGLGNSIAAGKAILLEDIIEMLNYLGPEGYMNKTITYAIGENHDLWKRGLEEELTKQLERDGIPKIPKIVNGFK
# assayProcedure: ITC
# reportedConditions: Kd (single-step binding, closed binding site), ITC; DcpS H268N
pKd: −log10 of the molar value.
endpointLabel: pKd

{"compound": "C[n+]1cn([C@@H]2O[C@H](COP(=O)([O-])O)[C@@H](O)[C@H]2O)c2nc(N)[nH]c(=O)c21 [m7GMP, m^7G monophosphate]", "measured": 5.96}

Data provenance is paper PMC4544744.
